- TEST DESCRIPTION: Inhibition of CXCL8-induced cell migration in human PMN cells at 0.01 uM by chemotaxis assay
- Format: functional
// label = Satisfied if inhibition at 0.01 µM is not less than 20%, otherwise Not satisfied

INSERT INTO measurements (compound, assigned_label) VALUES
  ('CC(C(=O)O)c1ccc(Cc2ccccc2)cc1 (stereo not given)', 'Not satisfied');

Check if inhibition at 0.01 µM >= 20% (inclusive). Item: CC(C(=O)O)c1ccc(OC(=O)c2ccccc2)cc1 (stereo not given)
Satisfied

Is inhibition at 0.01 µM for CONC(=O)[C@H](C)c1ccc(OS(=O)(=O)C(F)(F)F)cc1 at or above 20%?
Satisfied

Could you tell me if the measured inhibition at 0.01 µM of CC(C(=O)O)c1ccc(NS(C)(=O)=O)cc1 (stereo not given) reaches 20% or more?
Not satisfied
